Tested on: Mycobacterium tuberculosis
Test: Antimicrobial activity against Mycobacterium tuberculosis H37Rv after 9 to 12 days by CLSI microbroth dilution technique
Type: functional
Labelling: MIC reported below 5 µg/mL becomes True; at or above becomes False.

Task: API: query returns whether the molecule falls strictly under 5 µg/mL in MIC. Query: O[C@@H](CSc1ccccc1)CN1CCC(O)(c2ccc(Cl)c(C(F)(F)F)c2)CC1
Result: False

Task: hey, is MIC for O[C@H](COc1ccc(C(F)(F)F)cc1)CN1CCC(O)(c2ccc(Cl)c(C(F)(F)F)c2)CC1 lower than 5 µg/mL or not?
Result: True

Task: Quick check: MIC of O[C@@H](COc1ccc(Cl)cc1)CN1CCC(O)(c2ccc(Cl)c(C(F)(F)F)c2)CC1 under 5 µg/mL?
Result: True

Task: Input O[C@@H](COc1ccc(F)cc1)CN1CCC(O)(c2ccc(Cl)c(C(F)(F)F)c2)CC1 ; condition: MIC strictly below 5 µg/mL. Does it hold?
Result: False

Task: Say whether its MIC is strictly beneath 5 µg/mL. Entry: O[C@H](CSc1ccccc1)CN1CCC(O)(c2ccc(Cl)c(C(F)(F)F)c2)CC1
Result: False

Task: Take the molecule OC(COc1ccccc1)CN1CCC(O)(c2ccc(Cl)c(C(F)(F)F)c2)CC1 (racemic) and say whether its MIC is less than 5 µg/mL.
Result: False

Task: Hi there! Is MIC for OC(COc1ccc(Cl)cc1)CN1CCC(O)(c2ccc(Cl)c(C(F)(F)F)c2)CC1 (racemic) below 5 µg/mL, do you know?
Result: True

Task: # TODO verify MIC < 5 µg/mL strictly for this molecule: O[C@@H](COc1ccc(Cl)cc1)CN1CCC(O)(c2ccccc2)CC1
Result: False

Task: Please state whether MIC is below 5 µg/mL for O[C@@H](COc1ccc(OC(F)(F)F)cc1)CN1CCC(O)(c2ccc(Cl)c(C(F)(F)F)c2)CC1
Result: True

Task: Problem: For the molecule O[C@@H](COc1ccccc1)CN1CCC(O)(c2ccc(Cl)c(C(F)(F)F)c2)CC1 , is MIC under 5 µg/mL?
Result: False

Task: Just wondering, is MIC of Cc1cccc(C)c1OC[C@H](O)CN1CCC(O)(c2ccc(Cl)c(C(F)(F)F)c2)CC1 below 5 µg/mL?
Result: False

Task: Here's an entry: N#CC1(c2ccccc2)CCN(C[C@@H](O)COc2ccc(Cl)cc2)CC1 . Is its MIC below 5 µg/mL?
Result: False

Task: Item O[C@H](COc1ccc(OC(F)(F)F)cc1)CN1CCC(O)(c2ccc(Cl)c(C(F)(F)F)c2)CC1 : MIC beneath 5 µg/mL, strictly?
Result: False

Task: Report whether reported MIC is lower than 5 µg/mL (strictly) for O[C@@H](COc1ccc(Cl)cc1)CN1CCC(O)(c2cccc(C(F)(F)F)c2)CC1
Result: False

Task: Please determine if O[C@H](COc1ccc(F)cc1)CN1CCC(O)(c2ccc(Cl)c(C(F)(F)F)c2)CC1 is below 5 µg/mL in terms of MIC.
Result: True

Task: Hello, I'm reviewing records and need to know if MIC of O[C@@H](COc1ccc(Cl)cc1)CN1CCC(O)(c2ccc(Cl)cc2)CC1 is below 5 µg/mL. Could you check?
Result: False

Task: Given the entry O[C@H](COc1ccc(Cl)cc1)CN1CCC(O)(c2ccc(Cl)c(C(F)(F)F)c2)CC1 , would its reported MIC be below 5 µg/mL?
Result: True

Task: Quick check: does O[C@@H](COc1ccc(Cl)c(Cl)c1)CN1CCC(O)(c2ccc(Cl)c(C(F)(F)F)c2)CC1 have MIC under 5 µg/mL?
Result: True

Task: Is MIC of O[C@H](COc1ccc(Cl)c(Cl)c1)CN1CCC(O)(c2ccc(Cl)c(C(F)(F)F)c2)CC1 strictly below 5 µg/mL?
Result: False

Task: Given the entry O[C@H](COc1ccccc1)CN1CCC(O)(c2ccc(Cl)c(C(F)(F)F)c2)CC1 , would its reported MIC be below 5 µg/mL?
Result: False

Task: Report whether reported MIC is lower than 5 µg/mL (strictly) for O[C@@H](COc1ccc(Cl)cc1)CN1CC=C(c2ccc(Cl)cc2)CC1
Result: False

Task: Here's an entry: Cc1cccc(C)c1OC[C@@H](O)CN1CCC(O)(c2ccc(Cl)c(C(F)(F)F)c2)CC1 . Is its MIC below 5 µg/mL?
Result: True

Task: In the record for O[C@@H](COc1ccc(C(F)(F)F)cc1)CN1CCC(O)(c2ccc(Cl)c(C(F)(F)F)c2)CC1 , is MIC less than 5 µg/mL?
Result: False

* * *

Assay: Cytotoxicity against african green monkey Vero cells after 72 hrs by alamar blue assay
Assay type: cell-based
Conditions: chlorocebus sabaeus, read-out: LD50
Result Type: CC50 at 72 h (µg/mL)
Report the figure in µg/mL without appending any unit label.

Task: Return reported CC50 at 72 h; argument: O[C@H](CSc1ccccc1)CN1CCC(O)(c2ccc(Cl)c(C(F)(F)F)c2)CC1
Result: 35.7

Task: Look at this compound and give its reported CC50 at 72 h. O[C@H](COc1ccc(F)cc1)CN1CCC(O)(c2ccc(Cl)c(C(F)(F)F)c2)CC1
Result: 25.8

Task: // query CC50 at 72 h value for entry O[C@@H](COc1ccc(Cl)c(Cl)c1)CN1CCC(O)(c2ccc(Cl)c(C(F)(F)F)c2)CC1
Result: 18

Task: Param item = Cc1cccc(C)c1OC[C@@H](O)CN1CCC(O)(c2ccc(Cl)c(C(F)(F)F)c2)CC1 ; retrieve measured CC50 at 72 h.
Result: 19

Task: // returns reported CC50 at 72 h for input O[C@@H](CSc1ccccc1)CN1CCC(O)(c2ccc(Cl)c(C(F)(F)F)c2)CC1
Result: 37.1

Task: Field request: CC50 at 72 h | item: O[C@@H](COc1ccc(C(F)(F)F)cc1)CN1CCC(O)(c2ccc(Cl)c(C(F)(F)F)c2)CC1
Result: 18.3

Task: Query: CC50 at 72 h; subject: O[C@H](COc1ccc(Cl)c(Cl)c1)CN1CCC(O)(c2ccc(Cl)c(C(F)(F)F)c2)CC1
Result: 18.7

Task: Could you tell me which CC50 at 72 h is on file for O[C@@H](COc1ccc(OC(F)(F)F)cc1)CN1CCC(O)(c2ccc(Cl)c(C(F)(F)F)c2)CC1 ?
Result: 17.7

Task: Need CC50 at 72 h of OC(COc1ccc(Cl)cc1)CN1CCC(O)(c2ccc(Cl)c(C(F)(F)F)c2)CC1 (racemic) , thanks.
Result: 17.9

Task: For the compound O[C@H](COc1ccc(Cl)cc1)CN1CCC(O)(c2ccc(Cl)c(C(F)(F)F)c2)CC1 , what CC50 at 72 h is on record?
Result: 17.9

Task: Consider the compound shown here: O[C@H](COc1ccc(C(F)(F)F)cc1)CN1CCC(O)(c2ccc(Cl)c(C(F)(F)F)c2)CC1 What is its recorded CC50 at 72 h?
Result: 18.7

Task: What value of CC50 at 72 h has been reported for the following compound? O[C@@H](COc1ccc(Cl)cc1)CN1CCC(O)(c2ccc(Cl)c(C(F)(F)F)c2)CC1
Result: 18.2

Task: What value of measured CC50 at 72 h is listed for Cc1cccc(C)c1OC[C@H](O)CN1CCC(O)(c2ccc(Cl)c(C(F)(F)F)c2)CC1 ?
Result: 19.3

Task: // returns reported CC50 at 72 h for input OC(COc1ccccc1)CN1CCC(O)(c2ccc(Cl)c(C(F)(F)F)c2)CC1 (racemic)
Result: 19.5

Task: Request the reported CC50 at 72 h associated with O[C@H](COc1ccc(OC(F)(F)F)cc1)CN1CCC(O)(c2ccc(Cl)c(C(F)(F)F)c2)CC1
Result: 17.6

Task: Sample O[C@H](COc1ccccc1)CN1CCC(O)(c2ccc(Cl)c(C(F)(F)F)c2)CC1 — what was its CC50 at 72 h?
Result: 34.9

Task: Can you look up the measured CC50 at 72 h of O[C@@H](COc1ccc(F)cc1)CN1CCC(O)(c2ccc(Cl)c(C(F)(F)F)c2)CC1 for me?
Result: 20.8

Task: Name the recorded CC50 at 72 h for O[C@@H](COc1ccccc1)CN1CCC(O)(c2ccc(Cl)c(C(F)(F)F)c2)CC1 .
Result: 27.7

* * *

Please go through the items and note down their selectivity ratio.
Assay: Therapeutic index, CC50 for african green monkey Vero cells to MIC for Mycobacterium tuberculosis H37Rv
Format: cell-based
Provide a numeric answer; units are not to be included.

Task: Looking for the measured selectivity ratio of O[C@H](COc1ccc(C(F)(F)F)cc1)CN1CCC(O)(c2ccc(Cl)c(C(F)(F)F)c2)CC1 , can you help?
Result: 11

Task: // query selectivity ratio value for entry O[C@@H](CSc1ccccc1)CN1CCC(O)(c2ccc(Cl)c(C(F)(F)F)c2)CC1
Result: 4.4

Task: Which value of selectivity ratio has been reported for O[C@H](COc1ccc(OC(F)(F)F)cc1)CN1CCC(O)(c2ccc(Cl)c(C(F)(F)F)c2)CC1 in the records?
Result: 2.4

Task: Consider the compound O[C@H](COc1ccc(Cl)cc1)CN1CCC(O)(c2ccc(Cl)c(C(F)(F)F)c2)CC1 and give its measured selectivity ratio.
Result: 4.7

Task: Return reported selectivity ratio; argument: O[C@H](COc1ccc(F)cc1)CN1CCC(O)(c2ccc(Cl)c(C(F)(F)F)c2)CC1
Result: 6.6

Task: What does the record list as selectivity ratio for O[C@@H](COc1ccc(OC(F)(F)F)cc1)CN1CCC(O)(c2ccc(Cl)c(C(F)(F)F)c2)CC1 ?
Result: 4.9

Task: Bench note: what selectivity ratio did O[C@H](COc1ccccc1)CN1CCC(O)(c2ccc(Cl)c(C(F)(F)F)c2)CC1 show?
Result: 4.2

Task: GET /values?readout=selectivity ratio&item= OC(COc1ccccc1)CN1CCC(O)(c2ccc(Cl)c(C(F)(F)F)c2)CC1 (racemic)
Result: 1.9

Task: Return reported selectivity ratio; argument: O[C@@H](COc1ccc(Cl)c(Cl)c1)CN1CCC(O)(c2ccc(Cl)c(C(F)(F)F)c2)CC1
Result: 5.8
